Data provenance: paper PMC9738591

Target: human CB2R (Homo sapiens, UniProt P34972)
Sequence (P34972 whole entry): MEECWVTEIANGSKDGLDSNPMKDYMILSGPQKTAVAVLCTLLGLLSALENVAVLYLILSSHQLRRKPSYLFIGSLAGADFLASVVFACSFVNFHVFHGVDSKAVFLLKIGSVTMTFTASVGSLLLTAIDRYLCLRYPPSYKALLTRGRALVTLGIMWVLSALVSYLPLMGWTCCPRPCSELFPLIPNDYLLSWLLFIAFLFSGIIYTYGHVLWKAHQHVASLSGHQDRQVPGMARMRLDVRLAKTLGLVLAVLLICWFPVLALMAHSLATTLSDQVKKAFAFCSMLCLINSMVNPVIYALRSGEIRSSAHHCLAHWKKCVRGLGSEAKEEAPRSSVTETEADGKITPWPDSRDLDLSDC
Assay: cAMP Hunter assay, effect on NKH-477-induced cAMP levels (agonist mode)
Type: cell-based
Conditions: stable CHO cells expressing the human CB2; read-out: EC50, reduction of NKH-477-induced cAMP levels
Field: EC50. Provide a value for each of the compounds that follow.
# number only, unit µM dropped from output

Sample CC(C)(C)N1CC(=NS(=O)(=O)c2cccc(Br)c2)N(CC2CC2)C1=O [Compound 10e] — what was its EC50?
0.264

Same again, this time with CC(C)(C)N1CC(=NS(=O)(=O)c2ccccc2)N(CC2CC2)C1=O [Compound 10b]
1.26

Same again, this time with CS(=O)(=O)N=C1CN(C23CC4CC(CC(C4)C2)C3)C(=O)N1CC1CC1 [Compound 12a]
2.14

---

Field: inhibition at 10 µM. Provide a value for each of the compounds that follow.
Target: human recombinant CB1R (Homo sapiens, UniProt P21554)
Construct: purchased Perkin-Elmer, Italy; host or cells: HEK-293 cells (membranes)
Sequence (P21554 whole entry): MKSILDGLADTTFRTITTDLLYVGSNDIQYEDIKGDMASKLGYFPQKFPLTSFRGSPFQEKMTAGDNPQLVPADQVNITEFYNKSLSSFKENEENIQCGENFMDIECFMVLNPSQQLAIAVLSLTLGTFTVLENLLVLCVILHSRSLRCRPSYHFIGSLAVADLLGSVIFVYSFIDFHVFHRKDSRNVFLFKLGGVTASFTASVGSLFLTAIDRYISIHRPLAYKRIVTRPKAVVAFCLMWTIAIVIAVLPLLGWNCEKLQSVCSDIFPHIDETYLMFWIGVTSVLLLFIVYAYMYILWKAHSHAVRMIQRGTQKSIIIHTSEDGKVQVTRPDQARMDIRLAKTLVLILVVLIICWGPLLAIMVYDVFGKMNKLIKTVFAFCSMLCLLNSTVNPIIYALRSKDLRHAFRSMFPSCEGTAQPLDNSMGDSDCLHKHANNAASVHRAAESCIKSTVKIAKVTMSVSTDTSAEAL
Assay: Competition binding assay, displacement of [3H]-CP-55,940 from membranes of HEK-293 cells overexpressing CB1R
Details: max conc. tested 10 µM; read-out: % Displacement/ Max. Conc. Tested, hCB1R
# number only, unit % dropped from output

Sample CC(C)(C)N1CC(=NS(=O)(=O)c2cccc(Br)c2)N(c2ccccc2)C1=O — what was its inhibition at 10 µM?
4.64

Same again, this time with CN1CC(=NS(=O)(=O)c2ccccc2)N(C)C1=O
32.8

Same again, this time with CC(C)(C)N1CC(=NS(=O)(=O)c2ccc(Br)cc2)N(c2ccccc2)C1=O
17.4

Same again, this time with Cc1ccc(S(=O)(=O)N=C2CN(C)C(=O)N2C)cc1
26.9

Same again, this time with CN1CC(=NS(=O)(=O)c2ccc(Cl)cc2)N(C)C1=O
47.5

Same again, this time with CCN1CC(=NS(=O)(=O)c2ccccc2)N(CC)C1=O
22.7

---

Biological target: human recombinant CB1R (Homo sapiens)
Construct: purchased Perkin-Elmer, Italy; host or cells: HEK-293 cells (membranes)
Assay: Competition binding assay, displacement of [3H]-CP-55,940 from membranes of HEK-293 cells overexpressing CB1R
Conditions: read-out: % Displacement/ Max. Conc. Tested, hCB1R
Readout Name: inhibition at 10 µM (%)
# number only, unit % dropped from output

Sample CC(C)(C)N1CC(=NS(=O)(=O)c2ccc(Br)cc2)N(CC2CC2)C1=O [Compound 10d] — what was its inhibition at 10 µM?
22.2

Same again, this time with O=C1N(CC2CC2)/C(=N/S(=O)(=O)c2ccc3ccccc3c2)CN1C12CC3CC(CC(C3)C1)C2 [Compound 12h]
38.5

Same again, this time with Cc1cc(C)c(S(=O)(=O)N=C2CN(C(C)(C)C)C(=O)N2CC2CC2)c(C)c1 [Compound 10f]
15.4

Same again, this time with O=C1N(CC2CC2)C(=NS(=O)(=O)c2cccc(Br)c2)CN1C12CC3CC(CC(C3)C1)C2 [Compound 12e]
5.07

Same again, this time with CC(C)(C)N1C(=O)N(CC2CC2)CC1=NS(=O)(=O)c1ccccc1 [Compound 15]
0.01

Same again, this time with CC(C)(C)N1CC(=NS(=O)(=O)c2ccccc2)N(c2ccccc2)C1=O [Compound 9b]
12

Same again, this time with CC(C)(C)N1CC(=NS(=O)(=O)c2ccccc2)N(CC2CC2)C1=O [Compound 10b]
10.5

Same again, this time with COCCN1C(=O)N(C(C)(C)C)CC1=NS(=O)(=O)c1ccc(Br)cc1 [Compound 11d]
50.1

---

Molecular target: human CB2R (Homo sapiens)
Test: Competition binding assay, displacement of [3H]-CP-55,940 from membranes of HEK-293 cells overexpressing CB2R
Design: purchased Perkin-Elmer, Italy; host or cells: HEK-293 cells (membranes)
Conditions: [3H]-CP-55,940 displacement, HEK-293 membranes, 90 min at 30 °C, Cheng-Prusoff; read-out: Ki hCB2R (µM ± S.E.)
Field: Ki. Provide a value for each of the molecules that follow.

Sample COCCN1C(=O)N(C(C)(C)C)CC1=NS(=O)(=O)c1cccc(Br)c1 [Compound 11e] — what was its Ki?
> 10 µM

Same again, this time with CC(C)(C)N1CC(=NS(C)(=O)=O)N(c2ccccc2)C1=O [Compound 9a]
> 10 µM

Same again, this time with CC(C)(C)N1CC(=NS(=O)(=O)c2cccc(Br)c2)N(c2ccccc2)C1=O [Compound 9e]
> 10 µM

Same again, this time with CCN1CC(=NS(=O)(=O)c2ccc(Cl)cc2)N(CC)C1=O [Compound 4f]
> 10 µM

Same again, this time with Cc1cc(C)c(S(=O)(=O)N=C2CN(C34CC5CC(CC(C5)C3)C4)C(=O)N2CC2CC2)c(C)c1 [Compound 12f]
> 10 µM

Same again, this time with O=C1N(CC2CC2)/C(=N/S(=O)(=O)c2cccc3ccccc23)CN1C12CC3CC(CC(C3)C1)C2 [Compound 12g]
> 10 µM

Same again, this time with CC(C)(C)N1CC(=NS(=O)(=O)c2ccc3ccccc3c2)N(c2ccccc2)C1=O [Compound 9h]
> 10 µM

Same again, this time with COCCN1C(=O)N(C(C)(C)C)CC1=NS(=O)(=O)c1c(C)cc(C)cc1C [Compound 11f]
3.45 µM

Same again, this time with CC(C)(C)N1CC(=NS(=O)(=O)c2cccc3ccccc23)N(c2ccccc2)C1=O [Compound 9g]
> 10 µM

Same again, this time with COCCN1C(=O)N(C(C)(C)C)CC1=NS(=O)(=O)c1ccc(Br)cc1 [Compound 11d]
> 10 µM

Same again, this time with Cc1cc(C)c(S(=O)(=O)N=C2CN(C(C)(C)C)C(=O)N2c2ccccc2)c(C)c1 [Compound 9f]
> 10 µM

Same again, this time with Cc1ccc(S(=O)(=O)N=C2CN(C(C)(C)C)C(=O)N2CC2CC2)cc1 [Compound 10c]
1.47 µM

Same again, this time with CS(=O)(=O)N=C1CN(C23CC4CC(CC(C4)C2)C3)C(=O)N1CC1CC1 [Compound 12a]
0.28 µM

Same again, this time with COCCN1C(=O)N(C(C)(C)C)CC1=NS(=O)(=O)c1cccc2ccccc12 [Compound 11g]
1.66 µM

Same again, this time with CC(C)(C)N1CC(=NS(=O)(=O)c2ccccc2)N(CC2CC2)C1=O [Compound 10b]
1.67 µM

Same again, this time with CC(C)(C)N1CC(=NS(C)(=O)=O)N(CC2CC2)C1=O [Compound 10a]
> 10 µM

Same again, this time with Cc1ccc(S(=O)(=O)N=C2CN(C(C)(C)C)C(=O)N2c2ccccc2)cc1 [Compound 9c]
> 10 µM

Same again, this time with COCCN1C(=O)N(C(C)(C)C)CC1=NS(C)(=O)=O [Compound 11a]
> 10 µM

Same again, this time with CC(C)(C)N1CC(=NS(=O)(=O)c2cccc(Br)c2)N(CC2CC2)C1=O [Compound 10e]
0.34 µM

Same again, this time with O=C1N(CC2CC2)C(=NS(=O)(=O)c2ccc(Br)cc2)CN1C12CC3CC(CC(C3)C1)C2 [Compound 12d]
> 10 µM

Same again, this time with Cc1cc(C)c(S(=O)(=O)N=C2CN(C(C)(C)C)C(=O)N2CC2CC2)c(C)c1 [Compound 10f]
0.63 µM

Same again, this time with O=C1N(CC2CC2)C(=NS(=O)(=O)c2cccc(Br)c2)CN1C12CC3CC(CC(C3)C1)C2 [Compound 12e]
0.16 µM

Same again, this time with CC(C)N1CC(=NS(=O)(=O)c2cccc3ccccc23)N(CC2CC2)C1=O [Compound 13]
0.8 µM

Same again, this time with CN1CC(=NS(=O)(=O)c2ccc(Br)cc2)N(C)C1=O [Compound 4d]
> 10 µM

Same again, this time with CC(C)(C)N1CC(=NS(=O)(=O)c2ccc(Br)cc2)N(CC2CC2)C1=O [Compound 10d]
0.83 µM

Same again, this time with CN1CC(=NS(=O)(=O)c2ccc(Cl)cc2)N(C)C1=O [Compound 4c]
> 10 µM

Same again, this time with O=C1N(CC2CC2)/C(=N/S(=O)(=O)c2ccc3ccccc3c2)CN1C12CC3CC(CC(C3)C1)C2 [Compound 12h]
> 10 µM

Same again, this time with CC(C)(C)N1CC(=NS(=O)(=O)c2ccc(Br)cc2)N(c2ccccc2)C1=O [Compound 9d]
> 10 µM

Same again, this time with CN1CC(=NS(=O)(=O)c2ccccc2)N(C)C1=O [Compound 4a]
> 10 µM

Same again, this time with COCCN1C(=O)N(C(C)(C)C)CC1=NS(=O)(=O)c1ccc2ccccc2c1 [Compound 11h]
> 10 µM

Same again, this time with CCN1CC(=NS(=O)(=O)c2ccc(C)cc2)N(CC)C1=O [Compound 1]
> 10 µM

Same again, this time with O=C1N(CC2CC2)C(=NS(=O)(=O)c2ccccc2)CN1C12CC3CC(CC(C3)C1)C2 [Compound 12b]
0.26 µM

Same again, this time with Cc1ccc(S(=O)(=O)N=C2CN(C(C)(C)C)C(=O)N2CC(C)C)cc1 [Compound 14]
> 10 µM

Same again, this time with COCCN1C(=O)N(C(C)(C)C)CC1=NS(=O)(=O)c1ccccc1 [Compound 11b]
> 10 µM
